# System: HOP-92
# METHOD SUMMARY: NCI tumour cell line growth inhibition, 48 h
The source made the active and inactive calls. Rule as the data show it: active = GI50 up to about 1.1 µM and inactive = higher.
Response enum: active, inactive

Tell me the recorded outcome of this test for `O=C(c1ccco1)N(C(=S)N1CCN(c2ccccc2)CC1)c1ccccc1` .
inactive

Would you kindly repeat that for `CC1(C)[C@H](C(=O)O)N2C(=O)[C@@H](NS(=O)(=O)c3ccc([N+](=O)[O-])cc3)[C@H]2S1(=O)=O` ?
inactive

Would you kindly repeat that for `CN(N=O)N1C(=O)SCC(c2ccccc2)(c2ccccc2)C1=O` ?
inactive

Would you kindly repeat that for Clc1cc(Cl)cc(C2SCc3nc4ccccc4n32)c1 (centres undefined) ?
inactive

Would you kindly repeat that for `C=CC1=C(C)c2cc3[nH]c(c4c5nc(cc6[nH]c(cc1n2)c(C=O)c6CC)C(C)=C5C(=O)[C@@H]4C(=O)OC)[C@@H](CCC(=O)O)[C@@H]3C` ?
inactive

Would you kindly repeat that for `Cc1c2c(cc3c1[nH]c1ccccc13)C(c1ccc(Cl)cc1)=NCC2` ?
active

Would you kindly repeat that for `O=C(O)C(=C\c1ccc2c(c1)OCO2)/C(=C/c1ccc2c(c1)OCO2)C(=O)O` ?
inactive

Would you kindly repeat that for `CCC(CC)n1c(C)nc2c1C(=O)c1ccccc1C2=O` ?
inactive

Would you kindly repeat that for CN(C)CC1CCC/C(=C\c2ccc(OC(=O)c3ccc(Cl)cc3)cc2)C1=O (centres undefined) ?
inactive

----------
# Test system: CAKI-1
# METHOD SUMMARY: NCI tumour cell line growth inhibition, 48 h
Activity calls are given as the source filed them. Rule as the data show it: active = GI50 up to about 1.1 µM and inactive = higher.
So I've got a bunch of compounds here, and I need their GI50 values.

Bench note: what GI50 did CC1COS(=O)O1 (stereo not given) show?
> 100 µM (inactive)

Would you kindly repeat that for Cc1ccc(S(=O)(=O)N(CC(O)c2ccccc2)c2ccccc2F)cc1 (stereo not given) ?
15.7 µM (inactive)

Would you kindly repeat that for CCOc1cc(C2SCC(=O)N2c2ccc3c(c2)Oc2c(Cl)c4c(c(Cl)c2=N3)Oc2cc(N3C(=O)CSC3c3ccc(O)c(OCC)c3)ccc2N=4)ccc1O (stereo not given) ?
> 100 µM (inactive)

Would you kindly repeat that for `CC(=O)c1[nH]c(Nc2ccc(C)cc2)c(C(=S)Nc2ccccc2)c1N` ?
16.9 µM (inactive)

Would you kindly repeat that for `CC1(C)O/C(=C\c2ccccc2)C(=O)/C(=C/c2ccccc2)O1` ?
55.3 µM (inactive)

Would you kindly repeat that for CNC(C)Cc1ccccc1O (stereo not given) ?
> 100 µM (inactive)

Would you kindly repeat that for `C[C@]12CC[C@H](O)C=C1CC[C@@H]1[C@@H]2CC[C@]2(C)C(=N/O)/C(=C/c3ccncc3)C[C@@H]12` ?
14.9 µM (inactive)

Would you kindly repeat that for `O=C(O[C@@H](/C=C/c1ccccc1)P1(=O)N(Cc2ccccc2)[C@@H]2CCCC[C@H]2N1Cc1ccccc1)c1ccccc1` ?
1.48 µM (inactive)

Would you kindly repeat that for `CCCCCCCCCCCCn1[nH]c(C)c(C(=S)SCCCCCCCC)c1=O` ?
32.1 µM (inactive)

Would you kindly repeat that for `Oc1ccc(-c2n[nH]c(S)n2)cc1` ?
> 100 µM (inactive)

----------
# Test system: KM-20L2
# METHOD SUMMARY: NCI tumour cell line growth inhibition, 48 h
Active and inactive are the calls of the source. Cut-off read from the data, not from the text of the source: active = GI50 up to about 1.1 µM and inactive = higher.
So I've got a bunch of compounds here, and I need their GI50 values.

Bench note: what GI50 did `O=C(c1ccco1)N(C(=S)N1CCN(c2ccccc2)CC1)c1ccccc1` show?
> 100 µM (inactive)

Would you kindly repeat that for `COc1ccc(/C=C/C(=O)c2sc(N)nc2C)cc1` ?
> 100 µM (inactive)

Would you kindly repeat that for `O=C1OC(=O)c2c1c(-c1ccccc1)cn2-c1ccc(Cl)cc1` ?
22.1 µM (inactive)

Would you kindly repeat that for c1ccc(C2N3CCCCC3[C@@H]3c4[nH]c5ccccc5c4CCN23)cc1 (stereo partly specified) ?
> 100 µM (inactive)

Would you kindly repeat that for `CC(C)[C@H]1CO[C@@H]2O[C@H](C)CC(=O)N21` ?
> 100 µM (inactive)

Would you kindly repeat that for `O=C1C=CC(=O)c2c1cc1ccccc1c2O` ?
19 µM (inactive)
